- System: HEK-293T
- EXPERIMENT NOTES: Multiplex assay against HEK293T
- Format: toxicity, cell-based
- CONDITION PARAMETERS: human, 48 h, 10 µM, compound concentration 10 uM, replicate 2
Non-standard residues stand in square brackets, D forms with d. Residues, ends and D or L forms follow the SMILES beside them.
PROPERTY MEASURED: Total Cell Count
Lab note: record the figure alone, no unit after it.

COC(c1ccccc1)(c1ccccc1)[C@H](Oc1nc(C)cc(C)n1)C(=O)O	480
S=C(NCCCc1c[nH]cn1)NCCCN(Cc1ccc(Cl)c(Cl)c1)c1ccc(Br)cn1	203
CN(C)C(=O)Cn1cc(-c2ccc(-c3nnc4ccccn34)cc2)cn1	616
CC(F)(F)CN1CCOc2c(nn(-c3ccccc3Cl)c2-c2ccc(Cl)cc2)C1=O	558

Tested on HEK-293T, the item "N[C@](CC1c2ccccc2Oc2ccccc21)(C(=O)O)[C@H]1C[C@@H]1C(=O)O" showed Total Cell Count equal to 687

Tested on HEK-293T, the item CC(C)C[C@@H]1NC(=O)[C@@H](C(C)C)NC(=O)[C@@H]2CCCN2C(=O)[C@@H](CC(=O)O)NC(=O)[C@@H](Cc2c[nH]c3ccccc23)NC1=O [BQ-123] (cyclo(L[dW][dD]P[dV])) showed Total Cell Count equal to 477

Tested on HEK-293T, the item "Nc1nc(CC(=O)Nc2ccc(CCNC[C@H](O)c3ccccc3)cc2)cs1" showed Total Cell Count equal to 750

Tested on HEK-293T, the item "CN1CCC(C(=O)c2cccc(NC(=O)c3c(F)cc(F)cc3F)n2)CC1" showed Total Cell Count equal to 671

---

- Test system: HEK-293T
- EXPERIMENT NOTES: Multiplex assay against HEK293T
- Assay type: toxicity, cell-based
- CONDITION PARAMETERS: human, 48 h, 10 µM, compound concentration 10 uM, replicate 2
Non-standard residues stand in square brackets, D forms with d. Residues, ends and D or L forms follow the SMILES beside them.
// values below are reported Population Membrane Permeable-Phenotype (%)
Field: numeric (%). Do not append units.

Examples from the recorded data:
Cc1cc(=O)n(C)c2cc(N3C(=O)CC[C@H](NS(=O)(=O)CC(C)C)[C@H]3c3ccc(Cl)cc3)ccc12	0
O=C(O)CCC/C=C\CC1C(O)CC(O)C1/C=C/C(O)COc1cccc(Cl)c1 (stereo unspecified)	1
CC(C)C[C@@H]1NC(=O)[C@@H](C(C)C)NC(=O)[C@@H]2CCCN2C(=O)[C@@H](CC(=O)O)NC(=O)[C@@H](Cc2c[nH]c3ccccc23)NC1=O [BQ-123] (cyclo(L[dW][dD]P[dV]))	0
OCCCNc1cc(-c2ccnc(Nc3cccc(Cl)c3)n2)ccn1	8
COc1cc2nc(N3CCN(C(=O)COc4c(OC)cccc4C(C)C)CC3)nc(N)c2cc1OC.Cl.Cl	1

Entry "Cn1cc(C(=O)OCC2CCN(CCNS(C)(=O)=O)CC2)c2ccccc21" ; Population Membrane Permeable-Phenotype (%) = 0

Entry O=C(NCCNCC(O)COc1ccc(O)cc1)N1CCOCC1.O=C(NCCNCC(O)COc1ccc(O)cc1)N1CCOCC1.O=C(O)/C=C/C(=O)O (stereo unspecified) [XAMOTEROL FUMARATE] ; Population Membrane Permeable-Phenotype (%) = 0

Entry COc1cc2nc(N3CCN(C(=O)c4ccco4)CC3)nc(N)c2cc1OC.Cl [PRAZOSIN HYDROCHLORIDE] ; Population Membrane Permeable-Phenotype (%) = 1

Entry CN1CCN2c3ccccc3Cc3ccccc3C2C1.Cl (stereo unspecified) [MIANSERIN HYDROCHLORIDE] ; Population Membrane Permeable-Phenotype (%) = 1

Entry COCCCN1CCC(NC(=O)c2cc(Cl)c(N)c3c2OCC3)CC1 [PRUCALOPRIDE] ; Population Membrane Permeable-Phenotype (%) = 0

Entry "CCCCC[C@H](O)/C=C/[C@H]1[C@H](O)CC(=O)[C@@H]1CCCCCCC(=O)O" ; Population Membrane Permeable-Phenotype (%) = 0

Entry "COc1cc(Nc2ncc3c(n2)-c2ccc(Cl)cc2C(c2c(F)cccc2OC)=NC3)ccc1C(=O)O" ; Population Membrane Permeable-Phenotype (%) = 4

Entry "Cc1c(Cc2ccc3ccccc3n2)c2cc(F)ccc2n1CC(=O)O" ; Population Membrane Permeable-Phenotype (%) = 0

Entry "CSc1nc(NC2CCCC2)c([N+](=O)[O-])c(NC2CCCC2)n1" ; Population Membrane Permeable-Phenotype (%) = 0

Entry "COCCn1c(C)c(C)s/c1=N\C(=O)C1C(C)(C)C1(C)C" ; Population Membrane Permeable-Phenotype (%) = 0

Entry "COc1ccc2[nH]c(I)c(CCNC(C)=O)c2c1" ; Population Membrane Permeable-Phenotype (%) = 0

---

- Tested on: Fibroblast
- EXPERIMENT NOTES: Multiplex assay against human fibroblast
- Assay type: toxicity, cell-based
- CONDITION PARAMETERS: 48 h, 1 µM, compound concentration 1 uM, replicate 1
PROPERTY MEASURED: Population Fragmented Nuclei (%)
Field: numeric (%). Do not append units.

COc1cc(C(=O)N2CC[C@@H](O)[C@@H](N)C2)cc2nc(-c3cc4ccccc4n3CC3CC3)n(C)c12.Cl	22
CC(C)(O)C(=O)N1CCN(c2ccc(C(F)(F)F)c(C3=C(c4c[nH]c5ccccc45)C(=O)NC3=O)c2)CC1	21
COc1ccc2c(c1OCc1ccccc1)C[C@@H](C(=O)O)N(C(=O)C(c1ccccc1)c1ccccc1)C2 [OLODANRIGAN]	27

Now for a further molecule.
Entry CN1CCN2c3ccccc3Cc3ccccc3C2C1.Cl (centres undefined) [MIANSERIN HYDROCHLORIDE] ; Population Fragmented Nuclei (%) = 35

---

// values below are reported Population Pyknosed Nuclei (%)
- System: Fibroblast
- EXPERIMENT NOTES: Multiplex assay against human fibroblast
- Assay type: toxicity, cell-based
- CONDITION PARAMETERS: 12 h, 1 µM, compound concentration 1 uM, replicate 1
Field: numeric (%). Do not append units.

Examples from the recorded data:
COc1ccc2[nH]c(I)c(CCNC(C)=O)c2c1 [IODOMELATONIN]	19
OCCCNc1cc(-c2ccnc(Nc3cccc(Cl)c3)n2)ccn1	18

Entry O=C(O)CCC/C=C\CC1C(O)CC(O)C1/C=C/C(O)COc1cccc(Cl)c1 (stereo not given) [CLOPROSTENOL] ; Population Pyknosed Nuclei (%) = 15

Entry "CC(F)(F)CN1CCOc2c(nn(-c3ccccc3Cl)c2-c2ccc(Cl)cc2)C1=O" ; Population Pyknosed Nuclei (%) = 15

Entry "C[C@H](NC(=O)CNC(=O)c1cccc(Cl)c1)c1ccccc1" ; Population Pyknosed Nuclei (%) = 10

---

- Test system: HEK-293T
- EXPERIMENT NOTES: Multiplex assay against HEK293T
- Format: toxicity, cell-based
- CONDITION PARAMETERS: human, 24 h, 10 µM, compound concentration 10 uM, replicate 1
Non-standard residues stand in square brackets, D forms with d. Residues, ends and D or L forms follow the SMILES beside them.
Grouping key: Population Pyknosed Nuclei (%). Bins: lowest = under 10%, middle = from 10% up to 20%, highest = 20% and over

CN(C)C/C=C/C(=O)Nc1ccc(C(=O)N2CCCC(Nc3ncc(Cl)c(-c4c[nH]c5ccccc45)n3)C2)cc1 (configuration not stated)	highest
COc1cc2nc(N3CCN(C(=O)c4ccco4)CC3)nc(N)c2cc1OC.Cl [PRAZOSIN HYDROCHLORIDE]	lowest
CN1CCC(C(=O)c2cccc(NC(=O)c3c(F)cc(F)cc3F)n2)CC1	middle
COc1cc2nc(N3CCN(C(=O)COc4c(OC)cccc4C(C)C)CC3)nc(N)c2cc1OC.Cl.Cl	highest
CC(C)C[C@@H]1NC(=O)[C@@H](C(C)C)NC(=O)[C@@H]2CCCN2C(=O)[C@@H](CC(=O)O)NC(=O)[C@@H](Cc2c[nH]c3ccccc23)NC1=O [BQ-123] (cyclo(L[dW][dD]P[dV]))	middle

Dear colleague, I would appreciate it if you could identify the bin for O=c1ccc2ccc(OCCCCN3CCN(c4cccc5sccc45)CC3)cc2[nH]1 [BREXPIPRAZOLE] and reply at your convenience.
highest

Dear colleague, I would appreciate it if you could identify the bin for "CC(C)(O)C(=O)N1CCN(c2ccc(C(F)(F)F)c(C3=C(c4c[nH]c5ccccc45)C(=O)NC3=O)c2)CC1" and reply at your convenience.
highest

Dear colleague, I would appreciate it if you could identify the bin for "Cc1nn(C)c2nc(NNC(=O)Nc3cc(Cl)nc(Cl)c3)cc(C(C)C)c12" and reply at your convenience.
highest

Dear colleague, I would appreciate it if you could identify the bin for "Cc1cc(O)c(-c2ccc([C@@H](C)CN(C)C)cc2)c2c1[nH]c(=O)c1sccc12" and reply at your convenience.
highest

Dear colleague, I would appreciate it if you could identify the bin for O=C(NCCNCC(O)COc1ccc(O)cc1)N1CCOCC1.O=C(NCCNCC(O)COc1ccc(O)cc1)N1CCOCC1.O=C(O)/C=C/C(=O)O (configuration not stated) [XAMOTEROL FUMARATE] and reply at your convenience.
middle

Dear colleague, I would appreciate it if you could identify the bin for "O=C(Nc1cc(-c2ccccc2)nn1-c1ccccc1F)c1ccc([N+](=O)[O-])cc1" and reply at your convenience.
middle

Dear colleague, I would appreciate it if you could identify the bin for "COCCn1c(C)c(C)s/c1=N\C(=O)C1C(C)(C)C1(C)C" and reply at your convenience.
lowest

Dear colleague, I would appreciate it if you could identify the bin for "Nc1nc(-c2ccco2)c2cnn(Cc3ccccc3F)c2n1" and reply at your convenience.
highest

Dear colleague, I would appreciate it if you could identify the bin for "CN1CCN(c2ccc(Nc3c4ccccc4nc4ccccc34)cc2)CC1.Cl.Cl.O" and reply at your convenience.
lowest

Dear colleague, I would appreciate it if you could identify the bin for "CC(F)(F)CN1CCOc2c(nn(-c3ccccc3Cl)c2-c2ccc(Cl)cc2)C1=O" and reply at your convenience.
middle
